tested on: SNB-75 CNS; experiment: NCI tumour cell line growth inhibition, 48 h
reportedProperty: GI50

compound	GI50
COc1cc(-c2nc3ccccc3s2)ccc1NC(=O)COc1ccc(Cl)cc1	42.9 µM
CCOC(=O)c1c(C)n2c(=O)cc(C)c3c(O)c(O)cc1c32	35.6 µM
CCCCCCCCN(CCCCCCCC)CCCCCCNc1cc(OC)cc2cccnc12	15.3 µM
Cc1ccc(C(SCC(N)C(=O)O)(c2ccc(C)cc2)c2ccc(C)cc2)cc1 (stereo not given)	6.69 µM

Continue with the next compound.
Entry Clc1ccc2c(c1)N(c1ncnc3ccc(-c4cnc5[nH]ccc5c4)cc13)CC2 , SNB-75 CNS data, GI50 value: 0.776 µM

----------
tested on: MDA-MB-231 breast; assay: NCI tumour cell line growth inhibition, 48 h
reportedProperty: TGI

The examples below pair each entry with its known result.
molecule	reportedProperty	reportedMeasurement
COc1ccc(OCc2ccc3nc(-c4ccccc4)c(Cl)nc3c2)cc1	TGI	37.9 µM
O=C(/C(=C\c1ccc([N+](=O)[O-])cc1)S(=O)Cc1ccc(F)cc1)c1ccc(F)cc1 (stereo unspecified)	TGI	4.35 µM
Cc1ncc2c(=O)c3c(oc2n1)c1ccccc1n3Cc1ccccc1	TGI	> 100 µM

Below is a list of molecules. For each, state its recorded TGI.
1. NC(=O)c1ccc(NN=O)nc1
2. C/C(=C\CCc1ccoc1)CC/C=C(\C)CCCN1CCOCC1
3. CCOC(=O)c1c(C)n2c(=O)cc(C)c3c(O)c(O)cc1c32

1. > 100 µM
2. 12.2 µM
3. 30.2 µM

----------
Would you kindly list TGI for each of these compounds?
tested on: U251 CNS; assay: NCI tumour cell line growth inhibition, 48 h

compound	TGI
O=C(/C(=C\c1ccc([N+](=O)[O-])cc1)S(=O)Cc1ccc(F)cc1)c1ccc(F)cc1 (stereo unspecified)	3.44 µM
O=P1(Oc2ccccc2)N(CCCl)CCN1c1ccccc1 (stereo unspecified)	> 100 µM
NS(=O)(=O)c1ccc(NC2=CC(=O)C(=O)c3ccccc32)cc1	> 100 µM
CCC(=O)c1ccc2[nH]c3c(C)c4c(=O)cc(C)[nH]c4c(C)c3c2c1	> 100 µM
CCOC(=O)c1cnc2n(c1=N)[C@H]1CCCC[C@@H]1N2	> 100 µM

Below is a list of compounds. For each, state its recorded TGI.
1. Cc1ccc(-c2cc(C(F)(F)F)nn2-c2ccc(S(N)(=O)=O)cc2)cc1
2. CC[P+](C)(C)c1ccccc1

["> 54.5 µM", "> 100 µM"]

Below is a list of compounds. For each, state its recorded TGI.
1. COc1ccc(C(SCC(N)C(=O)O)(c2ccccc2)c2ccccc2)cc1 (stereo unspecified)
2. CN(C)c1ccc(N=C2C=CC(=[N+](C)C)C=C2)cc1
3. O=C(c1ccccc1)N1C2CCC1C(C(F)(F)F)=C2C(F)(F)F

["> 57 µM", "15.4 µM", "> 100 µM"]

The recorded TGI for O=C1c2ccccc2S(=O)(=O)N1CSC(=S)N1CCCCC1 is > 100 µM

----------
Would you kindly list TGI for each of these molecules?
system: SF-539 CNS; assay: NCI tumour cell line growth inhibition, 48 h

molecule	TGI
O=C(/C(=C\c1ccc([N+](=O)[O-])cc1)S(=O)Cc1ccc(F)cc1)c1ccc(F)cc1 (centres undefined)	3.37 µM

Below is a list of molecules. For each, state its recorded TGI.
1. CC1C[C@H](C)CC(C(O)CC2CC(=O)N(Cc3ccccc3)C(=O)C2)C1O (some centres undefined)
2. CC1(C)C(O)C[C@@H](O)[C@@]2(C)C1CC[C@]1(C)C2C[C@@H](O)[C@@H]2C([C@@]3(C)CC[C@@H](C(C)(C)O)O3)CCC21C (some centres undefined)
3. CCC[C@H](NS(=O)c1ccc(C)cc1)C(C(=O)OCC)=C(c1ccccc1)c1ccccc1 (some centres undefined)
4. O=c1[nH]nc(Cc2ccccc2)n1/N=C\c1ccccc1

1. > 100 µM
2. 27.5 µM
3. 48.5 µM
4. > 100 µM

Below is a list of molecules. For each, state its recorded TGI.
1. c1ccc(-n2nc3ccc4nonc4c3n2)cc1
2. COc1cc(OC)c(/C=C\c2ccnc3ccccc23)c(OC)c1
3. NC1CCC(Nc2nc(NCc3ccc(-c4cccs4)nc3)c3ncn(C4CCCC4)c3n2)CC1 (centres undefined)
4. CC(C)(C)OC(=O)NCCc1cccc2c1oc1c(CCC(=O)O)cccc12

> 100 µM
12.4 µM
0.395 µM
> 100 µM

Below is a list of molecules. For each, state its recorded TGI.
1. CCN1C(=O)C(C)S/C1=N\NC(=O)CSc1nc2ccccc2c(=O)n1CC (centres undefined)
2. O=[N+]([O-])c1ccc(Sc2ncnc3nc[nH]c23)c2nonc12
3. CCOC(=O)c1cnc2n(c1=N)[C@H]1CCCC[C@@H]1N2
4. COC1C=COC2(C)Oc3c(C)c(O)c4c(O)c(c(/C=N/N5CCN(N)CC5)c(O)c4c3C2=O)NC(=O)C(C)=CC=CC(C)C(O)C(C)C(O)C(C)C(OC(C)=O)C1C (centres undefined)
5. O=C(Nc1ccccc1)N(C1=NCC(CI)S1)c1ccc(F)cc1F (centres undefined)

1. > 100 µM
2. 21.5 µM
3. > 100 µM
4. > 100 µM
5. > 100 µM

----------
test system: HCT-15 colon; assay: NCI tumour cell line growth inhibition, 48 h
reportedProperty: TGI

Below is a list of compounds. For each, state its recorded TGI.
1. CC1=C/C(=N\O)C(C(O)(C(F)(F)F)C(F)(F)F)C(C)(C)C1 (stereo not given)
2. CCN(CC)CCNC(=O)c1cc2cc(NC(=O)c3cc4cc(NC(=O)c5cc6cc(N)ccc6[nH]5)ccc4[nH]3)ccc2[nH]1
3. COC1C=COC2(C)Oc3c(C)c(O)c4c(O)c(c(/C=N/N5CCN(N)CC5)c(O)c4c3C2=O)NC(=O)C(C)=CC=CC(C)C(O)C(C)C(O)C(C)C(OC(C)=O)C1C (stereo not given)
4. COc1ccc2cc(-c3cc4c(oc3=O)-c3ccccc3OC4O)c(=O)oc2c1 (stereo not given)
5. COC(=O)[C@@H]1CN(C(C)=O)C(=O)N1C(=O)OCc1ccccc1

> 10 µM
> 100 µM
> 100 µM
32 µM
> 100 µM

----------
tested on: NCI-H522 lung; assay: NCI tumour cell line growth inhibition, 48 h
reportedProperty: GI50

The examples below pair each entry with its known result.
compound	reportedMeasurement
CCN1C(=O)N(CC)C2Nn3c(s/c(=C\c4ccccc4Br)c3=O)=NC21 (centres undefined)	1260 nM
COC(=O)[C@]12CC[C@@H](C)[C@H](C)[C@@H]1C1=CC[C@@H]3[C@@]4(C)C(C=O)=C[C@@](C)(COC(C)=O)C4=CC[C@@]3(C)[C@]1(C)CC2	7970 nM
CC(C)(C)C(=O)OCOP(=O)(OCOC(=O)C(C)(C)C)C1CC(O)N(O)C1=O (centres undefined)	2950 nM

Entry Cc1cc(O)ccc1C1=NN(c2ccc(S(C)(=O)=O)cc2)C(=O)CC1 , NCI-H522 lung data, GI50 value: 2530 nM

----------
system: RPMI-8226 leukemia; experiment: NCI tumour cell line growth inhibition, 48 h
reportedProperty: TGI

compound	reportedMeasurement
C=C(C)[C@H]1C=C[C@@H](OC(=O)c2cccnc2)[C@@]23CO[C@@](C)([C@H](OC(=O)c4cccnc4)[C@@]4(OC(C)=O)C[C@H](C)[C@H](OCCC)[C@@H]4[C@H]2OC(C)=O)[C@H]13	> 15 µM
COC(=O)/C(=N\Nc1nc(=S)[nH]n1N)C(C#N)c1ccccc1 (centres undefined)	> 100 µM
Clc1cccc(Cl)c1C1CSc2ccccc2N=C1c1ccccc1 (centres undefined)	7.1 µM

Continue with the next compound.
The recorded TGI for CCN(CC)c1ccc2cc(C(=O)Nc3ccccc3)c(=N)oc2c1 is > 100 µM

----------
test system: SNB-19 CNS; assay: NCI tumour cell line growth inhibition, 48 h; in the data active = GI50 below about 0.43 µM; inactive = the rest
Your answer must be one of the following: active, inactive

Please review the entries below; each comes with its answer.
molecule	qualitativeLabel
Oc1ccc(O)c(-c2cn3ccsc3n2)c1	inactive
COc1cc2nc(SCC(=O)Nc3cc(OC)c(OC)c(OC)c3)n(Cc3ccccc3)c(=O)c2cc1OC	inactive
Cc1ccc2ncnc(N(CC(C)C)CC(C)C)c2c1	inactive
CC1COc2c(N3CCN(C)CC3)c(F)cc3c(=O)c(C(=O)O)cn1c23 (stereo unspecified)	inactive

Here's the next entry for you.
// return assay outcome for O=C1c2nsnc2C(=O)c2c(F)c(F)c(F)c(F)c21 inactive

----------
tested on: IGROV1 ovarian; test: NCI tumour cell line growth inhibition, 48 h
Where a SMILES comes first, the peptide text is derived from it. The star is where a group is joined. Cbz = O=C(OCc1ccccc1)*; Boc = CC(C)(C)OC(=O)*; OSu = O=C1CCC(=O)N1O*; Bn = c1ccc(C*)cc1
Would you kindly list TGI for each of these molecules?

The examples below pair each entry with its known result.
molecule	TGI
CCCCCCCCOCC(O)COC(=O)CCCCCCC (stereo not given)	> 100 µM
CC(=O)Nc1ccc2[nH]c(-c3cccc(Cl)c3)cc(=O)c2c1	> 100 µM
Cc1ccc(NC(=O)C(=O)C(C#N)c2nc(-c3ccc(-c4ccccc4)cc3)cs2)c(C)c1 (stereo not given)	> 100 µM
CC(C)(C)OC(=O)NC(Cc1ccc(OCc2ccccc2)cc1)C(=O)NC(CCCCNC(=O)OCc1ccccc1)C(=O)ON1C(=O)CCC1=O (stereo not given) (Boc-Tyr(Bn)-Lys(Cbz)-OSu; configuration not given here)	33.1 µM

Continue with the next molecule.
The recorded TGI for CC(C)(C)Nc1noc(=O)n1C(C)(C)C is > 100 µM
